Measured melting point of individual entries

compound	melting point
Nc1ccnn1-c1c(Cl)cc(C(F)(F)F)c(Cl)c1Cl	109 to 114 °C
CC(C)(C)N(O)CP(=O)(OCc1ccccc1)OCc1ccccc1	106 to 107 °C
CN(CC(=O)c1ccc(N(C)C)cc1)Cc1cc2c(=O)c(C(=O)NCc3ccc(Cl)cc3)cn(C)c2s1	162 °C

Exam item: Entry Cc1n[nH]c(=O)c(-c2c(F)cc(F)cc2F)c1-c1cccs1 needs its melting point filled in; supply it.
Marked response: 249 to 251 °C

Exam item: Tell me measured melting point for CCNC(=O)c1c(Cl)cccc1[Si](C)(C)C(C)C please.
Marked response: 98 to 100 °C

Exam item: Using known records, supply melting point for Cc1cnc(N)cc1C
Marked response: 113 to 114 °C

Exam item: Provide melting point value for the following compound: C=CCOc1cccc2oc(C=CC(=O)OCC)c(C)c12
Marked response: 79 to 80 °C

Exam item: Supply recorded melting point for CCc1nc(C)cn1-c1ccc2nc(NC(=O)c3ccc(C(C)(C)C)cc3)cn2n1 here.
Marked response: 220 to 221 °C

Exam item: Using known records, supply melting point for c1ccc(CSc2nc3ncccn3n2)cc1
Marked response: 104 to 106 °C

Exam item: Name the recorded melting point of the item COc1nc(CCc2cc(Br)ccc2OCc2ccccc2)ccc1C(=O)O in your answer.
Marked response: 141 to 143 °C

Exam item: Report melting point, nothing else, for this compound: CNC(=O)Cc1c(-c2ccccc2)nc2n(C)c3ccc(C)cc3n12
Marked response: 251 to 253 °C

Exam item: Look up and report measured melting point for this entry: N#CC(C#N)=Cc1ccccc1F
Marked response: 117 to 118 °C

Exam item: Please report melting point for the following compound: CCCc1nn(-c2ccc(C(F)(F)F)cn2)cc1CCCOc1ccc(CC(=O)O)cc1OC
Marked response: 121 to 122 °C

Exam item: Identify measured melting point associated with CC(C)n1nc(-c2sc(NC(=O)OC(C)(C)C)nc2-c2ccccc2)ccc1=O
Marked response: 198 to 199 °C

Exam item: Indicate its recorded melting point; the compound in question is CCC(CC)(CC(=O)Nc1cccc(OCc2ccc3cc(C)ccc3n2)c1)C(=O)O
Marked response: 175 °C

Exam item: Please indicate melting point recorded for CC(C)(CF)c1cc(Cl)nnc1Cl
Marked response: 36 to 38 °C

Exam item: Consider the compound COc1cccc(Cc2ccc(-c3cnn4c(O)ccnc34)cc2)c1 . State its measured melting point.
Marked response: 246 to 249 °C

Exam item: Using the record for CON1CCC2(CC1)NC(=O)NC2=O , state its measured melting point.
Marked response: 230 to 234 °C

Exam item: Annotate the compound Cc1cc(CO)cc([N+](=O)[O-])c1 with its measured melting point.
Marked response: 56.8 to 57.9 °C

Exam item: State its melting point: CC(C)[C@H](NC(=O)OCc1ccc2ccccc2n1)C(=O)N[C@@H](Cc1ccccc1)C[C@H](O)[C@H](Cc1ccccc1)NC(=O)OCc1cccnc1
Marked response: 141 to 143 °C

Exam item: Recall and state the measured melting point for O=C1CC(c2ccc(Oc3ccc(C(F)(F)F)cc3)cc2)Cc2ccccc21 (stereo unspecified) .
Marked response: 136 to 137 °C
